Origin of measurements: ChEMBL document CHEMBL1148554

System: Candida albicans
experiment: Antifungal activity against Candida albicans
Type: functional

{"molecule": "C[C@H](O)[C@@H](C)n1ncn(-c2ccc(N3CCN(c4ccc(OC[C@@H]5CO[C@@](Cn6cncn6)(c6ccc(F)cc6F)C5)cc4)CC3)cc2)c1=O", "MIC": "0.03 µg/mL"}
{"molecule": "CC[C@@H]([C@H](C)O)n1ncn(-c2ccc(N3CCN(c4ccc(OC[C@@H]5CO[C@@](Cn6cncn6)(c6ccc(F)cc6F)C5)cc4)CC3)cc2)c1=O [POSACONAZOLE]", "MIC": "0.018 µg/mL"}
{"molecule": "C[C@H](O)[C@H](C)n1ncn(-c2ccc(N3CCN(c4ccc(OC[C@@H]5CO[C@@](Cn6cncn6)(c6ccc(F)cc6F)C5)cc4)CC3)cc2)c1=O", "MIC": "0.02 µg/mL"}
{"molecule": "C[C@H]([C@@H](C)O)n1ncn(-c2ccc(N3CCN(c4ccc(OC[C@@H]5CO[C@@](Cn6cncn6)(c6ccc(F)cc6F)C5)cc4)CC3)cc2)c1=O", "MIC": "< 0.006 µg/mL"}
{"molecule": "C[C@@H](O)[C@H](C)n1ncn(-c2ccc(N3CCN(c4ccc(OC[C@@H]5CO[C@@](Cn6cncn6)(c6ccc(F)cc6F)C5)cc4)CC3)cc2)c1=O", "MIC": "< 0.007 µg/mL"}

###

Let's look at some molecules and their measured MIC.
Tested on: Candida albicans
experiment: Antifungal activity against Candida albicans
Type: functional
reportedEndpoint: MIC (µg/mL)

{"molecule": "CC[C@H]([C@@H](C)O)n1ncn(-c2ccc(N3CCN(c4ccc(OC[C@@H]5CO[C@@](Cn6cncn6)(c6ccc(F)cc6F)C5)cc4)CC3)cc2)c1=O", "readoutUnits": "µg/mL", "testValue": 0.014}
{"molecule": "CC[C@@H]([C@@H](C)O)n1ncn(-c2ccc(N3CCN(c4ccc(OC[C@@H]5CO[C@@](Cn6cncn6)(c6ccc(F)cc6F)C5)cc4)CC3)cc2)c1=O (mixture of isomers)", "readoutUnits": "µg/mL", "testValue": 0.019}
{"molecule": "CC[C@H]([C@H](C)O)n1ncn(-c2ccc(N3CCN(c4ccc(OC[C@@H]5CO[C@@](Cn6cncn6)(c6ccc(F)cc6F)C5)cc4)CC3)cc2)c1=O", "readoutUnits": "µg/mL", "testValue": 0.022}
